molecular target: KRas G12S (Homo sapiens, UniProt P01116, G12S); type: binding; conditions: TR-FRET displacement, read-out: Binding to KRas (IC50 nM) G12S
Sequence (P01116 1-169 isoform P01116-2 G12S): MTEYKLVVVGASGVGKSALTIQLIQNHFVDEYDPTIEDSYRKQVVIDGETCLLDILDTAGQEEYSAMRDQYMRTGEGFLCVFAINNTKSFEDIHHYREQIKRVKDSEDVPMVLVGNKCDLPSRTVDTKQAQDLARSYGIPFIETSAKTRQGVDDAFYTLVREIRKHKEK
observed property: IC50 (nM)

INSERT INTO measurements (molecule, readout_number) VALUES
  ('CCc1cccc2cccc(N3CCc4c(nc(OCC5(CN(C)C)CC5)nc4N4CCOC(C(F)F)CC4)C3)c12 (stereo not shown) [Example 544]', 204),
  ('Cc1cc2[nH]ncc2c(N2CCc3c(nc(OCC45CCCN4CCC5)nc3N3CCCn4nc(C(=O)N(C)C)cc4C3)C2)c1C [Example 451]', 243),
  ('CCc1cccc2cccc(N3CCc4c(nc(OCC5(CN(C)C)CC5)nc4N(C)Cc4nnc5c(=O)n(C)ccn45)C3)c12 [Example 700]', 399);

I = CCc1cccc2cccc(N3CCc4c(nc(OCC5(CN(C)C)CC5)nc4NCc4cc(CO)[nH]n4)C3)c12 [Example 539]
II = CCc1cccc2cccc(N3CCc4c(nc(OCC5(CN(C)C)CC5)nc4N4CCCn5nc(CO)cc5C4)C3)c12 [Example 694]
Would you mind telling me which has the lower recorded IC50 between I and II ? // caller expects the label of the chosen entry II
(II: 946 nM, I: 20700 nM)

====

test system: A549 cells; assay: Inhibition of KRas-mediated phosphorylation of ERK (Cisbio HTRF pERK), A549 cells; format: cell-based; details: Homo sapiens, A549, 3 h, 3 hr compound incubation, Cisbio pERK HTRF
observed property: IC50 (nM)

INSERT INTO assay_data (structure, readout_number) VALUES
  ('CCc1c(F)ccc2cc(O)cc(N3CCc4c(nc(OC[C@@]56CCCN5C[C@H](F)C6)nc4N4CCCn5nc(C(=O)NC(C)C)c(Cl)c5C4)C3)c12', 4),
  ('CCc1c(F)ccc2cc(O)cc(N3CCc4c(nc(OC[C@@]56CCCN5C[C@H](F)C6)nc4N4CCCn5nc(C(=O)N6CC7CCC6CC7)cc5C4)C3)c12', 17),
  ('CCc1c(F)ccc2cc(O)cc(N3CCc4c(nc(OCC5(CN(C)C)CC5)nc4N4CCCn5nncc5C4)C3)c12', 592),
  ('CCc1c(F)ccc2cc(O)cc(N3CCc4c(nc(OC[C@@]56CCCN5C[C@H](F)C6)nc4N4CCCn5nc(NC(C)=O)cc5C4)C3)c12', 524);

a = CCc1c(F)ccc2cc(O)cc(N3CCc4c(nc(OC[C@@]56CCCN5C[C@H](F)C6)nc4N4CCCCn5nc(C(=O)N(C)C)c(Br)c5C4)C3)c12
b = CCc1c(F)ccc2cc(O)cc(N3CCc4c(nc(OC[C@]56CCCN5[C@H](COC(=O)N(C)C)CC6)nc4N4CCC[C@@](C)(O)C4)C3)c12
Hey, which is lower on measured IC50, a or b ? Please indicate the selected item by its label. a

====

biological target: KRas G12C (Homo sapiens, UniProt P01116, G12C); type: binding; conditions: TR-FRET displacement, read-out: Binding to KRas (IC50 nM) G12C
Sequence (P01116 1-169 isoform P01116-2 G12C): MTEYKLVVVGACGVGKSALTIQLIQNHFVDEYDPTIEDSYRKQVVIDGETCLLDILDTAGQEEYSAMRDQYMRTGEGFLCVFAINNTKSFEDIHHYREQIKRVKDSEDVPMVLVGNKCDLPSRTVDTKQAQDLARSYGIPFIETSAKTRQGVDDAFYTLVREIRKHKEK
observed property: IC50 (nM)

1 = C=C1CN2CCCC2(COc2nc3c(c(N4CC5CC(O)CC4C5)n2)CCN(c2cc(O)cc4ccc(F)c(CC)c24)C3)C1 (stereo not drawn)
2 = Cc1cc2[nH]ncc2c(N2CCc3c(nc(OCC45CCCN4CCC5)nc3N3CCCn4nc(C(=O)N(C)C)cc4C3)C2)c1C
3 = C[C@@H]1C[C@@H]1c1c(Cl)cc(O)cc1N1CCc2c(nc(OC[C@@]34CCCN3C[C@H](F)C4)nc2N2CCC[C@@](C)(O)C2)C1 (stereo in doubt)
Parameters: sort_field (IC50), sort_dir (desc). Write out the labels following the order that was asked for. 2, 1, 3
(2: 209 nM, 1: 32 nM, 3: 4 nM)

====

target: KRas G12A (Homo sapiens, UniProt P01116, G12A); format: binding; conditions: single point, 10 nM compound, read-out: Binding to KRas (% inhibition at 10 nM) G12A
Sequence (P01116 1-169 isoform P01116-2 G12A): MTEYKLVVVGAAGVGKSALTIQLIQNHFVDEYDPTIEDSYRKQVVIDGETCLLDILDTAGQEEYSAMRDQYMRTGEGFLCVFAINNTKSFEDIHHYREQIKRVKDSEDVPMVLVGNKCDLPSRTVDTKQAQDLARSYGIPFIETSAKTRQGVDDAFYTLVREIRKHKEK
observed property: inhibition at 0.01 µM (%)

A = CCNc1cc2n(n1)CCCN(c1nc(OC[C@@]34CCCN3C[C@H](F)C4)nc3c1CCN(c1cc(O)cc4ccc(F)c(CC)c14)C3)C2 [Example 412]
B = CCc1c(F)ccc2cc(O)cc(N3CCc4c(nc(OC[C@@]56CCCN5C[C@H](F)C6)nc4N4CCCn5nc(C(=O)N(C)C6CCC6)cc5C4)C3)c12 [Example 385]
Compare reported inhibition at 0.01 µM values for A and B . Which is lower? Reply with the label of the item you choose. A
(A: 62%, B: 96%)

====

biological target: KRas G12C (Homo sapiens, UniProt P01116, G12C); assay type: binding; conditions: single point, 10 nM compound, read-out: Binding to KRas (% inhibition at 10 nM) G12C
observed property: inhibition at 0.01 µM (%)

INSERT INTO measurements (molecule, assay_target, u, readout_number) VALUES
  ('CCc1c(F)ccc2cc(O)cc(N3CCc4c(nc(OC[C@@]56CCCN5C[C@H](F)C6)nc4N4CCCn5nc(C(=O)N6C[C@@H]7C[C@H](C6)[C@H](O)C7)cc5C4)C3)c12 [Example 268]', 'KRas G12C (Homo sapiens, UniProt P01116, G12C)', '%', 99),
  ('CCc1c(F)ccc2cc(O)cc(N3CCc4c(nc(OC[C@@]56CCCN5C[C@H](F)C6)nc4N4CCCn5nc(C(=O)NCCOC)cc5C4)C3)c12 [Example 375]', 'KRas G12C (Homo sapiens, UniProt P01116, G12C)', '%', 98),
  ('CCc1c(F)ccc2cc(O)cc(N3CCc4c(nc(OC[C@@]56CCCN5C[C@H](F)C6)nc4N4CCCn5nc(C(=O)OC)cc5C4)C3)c12 [Example 411]', 'KRas G12C (Homo sapiens, UniProt P01116, G12C)', '%', 90),
  ('CCc1c(F)ccc2cc(O)cc(N3CCc4c(nc(OC[C@@]56CCCN5C[C@H](F)C6)nc4N4CCCc5nc(C(=O)N(C)C)sc5C4)C3)c12 [Example 304]', 'KRas G12C (Homo sapiens, UniProt P01116, G12C)', '%', 83),
  ('CCc1c(F)ccc2cc(O)cc(N3CCc4c(nc(OC[C@@]56CCCN5C[C@H](F)C6)nc4N4CCCn5nc(C(=O)N(C)C)c(OC)c5C4)C3)c12 [Example 370]', 'KRas G12C (Homo sapiens, UniProt P01116, G12C)', '%', 99);

I = CCNC(=O)c1nn2c(c1C)CN(c1nc(OC[C@@]34CCCN3C[C@H](F)C4)nc3c1CCN(c1cc(O)cc4ccc(F)c(CC)c14)C3)CCC2 [Example 379]
II = CCc1c(F)ccc2cc(O)cc(N3CCc4c(nc(OC[C@@]56CCCN5C[C@H](F)C6)nc4N4CCCn5nc(CN(C)C(=O)N(C)C)cc5C4)C3)c12 [Example 288]
Which value of inhibition at 0.01 µM is numerically greater: that of I or that of II ? Refer to your chosen item by its label in the answer. I
(I: 99%, II: 56%)

====

target: KRas G13D (Homo sapiens, UniProt P01116, G13D); assay type: binding; conditions: TR-FRET displacement, read-out: Binding to KRas (IC50 nM) G13D
Sequence (P01116 1-169 isoform P01116-2 G13D): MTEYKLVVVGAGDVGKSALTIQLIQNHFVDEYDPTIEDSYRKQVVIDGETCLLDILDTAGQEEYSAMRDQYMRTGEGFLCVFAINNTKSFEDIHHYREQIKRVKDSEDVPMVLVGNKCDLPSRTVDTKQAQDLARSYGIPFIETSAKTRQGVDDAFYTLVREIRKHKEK
observed property: IC50 (nM)

Examples from the recorded data:
INSERT INTO assay_data (compound, assay_target, readout_number) VALUES
  ('Cc1cc2[nH]ncc2c(N2CCc3c(nc(OCC45CCCN4CCC5)nc3N3CCCC4(C3)NC(=O)NC4=O)C2)c1C (stereo not shown)', 'KRas G13D (Homo sapiens, UniProt P01116, G13D)', 9),
  ('Cc1cc2[nH]ncc2c(N2CCc3c(nc(OCC45CCCN4CCC5)nc3N3CC4C(=O)NC(=O)C4C3)C2)c1C (stereo not shown)', 'KRas G13D (Homo sapiens, UniProt P01116, G13D)', 168);

a = O=C1NCC2(CCCN(c3nc(OCC45CCCN4CCC5)nc4c3CCN(c3cc(O)cc(Cl)c3C3CC3)C4)C2)N1 (stereo not shown)
b = CCc1cccc2cccc(N3CCc4c(nc(OCC5(CN(C)C)CC5)nc4N4CCCN(CC(F)(F)F)CC4)C3)c12
c = CCc1cccc2cccc(N3CCc4c(nc(OCC56CCCN5CCC6)nc4N4CCC(O)CC(S(C)(=O)=O)C4)C3)c12 (single isomer, unassigned)
d = CN1CCC[C@H]1COc1nc2c(c(N3CCCC4(CC(O)C4)C3)n1)CCN(c1cccc3cccc(Cl)c13)C2 (stereo partly shown)
e = O=C1NC(=O)C2CN(c3nc(OCC45CCCN4CCC5)nc4c3CCN(c3cc(O)cc(Cl)c3C3CC3)C4)CC12 (stereo not shown)
# desc sort on IC50 across 5 compounds // list labels; follow requested order d, b, c, e, a
(d: 4430 nM, b: 2220 nM, c: 32 nM, e: 7 nM, a: 4 nM)
